Across several publications, the following Ki results were reported for UniProt:A3EZJ3.
experimental_endpoint: Ki (nM)

molecule: CC(C)NC(=O)N[C@H](C(=O)N1C[C@H]2[C@@H]([C@H]1C(=O)NC(CC1CC1)C(=O)C(N)=O)C2(C)C)C(C)(C)C (stereo not given in full)
experimental_endpoint: Ki
recorded_value: 140

[I] CC(C)C[C@H](NC(=O)[C@@H]1CCCN1C(=O)[C@@H](NC(=O)[C@@H](NC(=O)[C@H](CCC(=O)O)NC(=O)[C@@H](N)CC(=O)O)C(C)C)C(C)C)B1O[C@@H]2C[C@@H]3C[C@@H](C3(C)C)[C@]2(C)O1
[II] CC(C)[C@H](NC(=O)[C@H](CCC(=O)O)NC(=O)[C@@H](N)CC(=O)O)C(=O)N[C@H](C(=O)N1CCC[C@H]1C(=O)N[C@@H](CCc1ccc(Cl)cc1)B1O[C@@H]2C[C@@H]3C[C@@H](C3(C)C)[C@]2(C)O1)C(C)C
Of the two listed items, I and II , which carries the larger Ki figure? Identify your selection by its label.
I
(I: 8 nM, II: 2 nM)

[I] C=CCNC(=O)C(=O)C(CCC)NC(=O)[C@@H]1C[C@@H]2CN1C(=O)[C@H](C1CCCCC1)NC(=O)Cc1cccc(c1)OCCC(C)(C)O2 (stereo not given in full)
[II] CCCC(NC(=O)[C@@H]1C2CCCC2CN1C(=O)[C@@H](NC(=O)[C@@H](NC(=O)CCCCc1nnn[nH]1)C(C)C)C(C)C)C(=O)C(=O)N[C@@H](C)c1ccccc1 (stereo in doubt; 13)
Between I and II , which one shows the smaller Ki number? Answer format: the label of the selected item.
II
(II: 27 nM, I: 530 nM)

###

Multiple publications report pKi for NS3 (Hepatitis C virus); what follows is a combined list.
pKi: −log10 of the molar value.
experimental_endpoint: pKi

Here's what some known entries look like.
molecule: CCCC(NC(=O)[C@@H]1[C@H]2CC(C)(C)C[C@H]2CN1C(=O)[C@@H](NC(=O)OCC(C)C)C(C)(C)C)C(=O)C(=O)NCC(=O)N[C@H](C(=O)N(C)C)c1ccccc1 (some centres undefined)
study_target: NS3 (Hepatitis C virus)
recorded_value: 7.82
--
molecule: CCCC(NC(=O)[C@@H]1[C@@H]2[C@H](CN1C(=O)[C@@H](NC(=O)OC(C)(C)C)C1CCCCC1)C2(C)C)C(=O)C(=O)NCC(=O)NCc1ccccc1 (some centres undefined)
study_target: NS3 (Hepatitis C virus)
recorded_value: 7.25

[I] CCCC(NC(=O)[C@@H]1C[C@@H]2CN1C(=O)[C@H](C1CCCCC1)NC(=O)Cc1cccc(c1)OCCCO2)C(=O)C(=O)NC (some centres undefined)
[II] CN(C(=O)N[C@H](C(=O)N1C[C@H]2[C@@H]([C@H]1C(=O)NC(CC1CC1)C(=O)C(N)=O)C2(C)C)C(C)(C)C)C(C)(C)C (some centres undefined)
Hi there! Just curious which has the higher pKi between I and II . # reply format: chosen label
II
(II: 7.22, I: 5.00)

###

pKi: −log10 of the molar value.
Multiple publications report pKi for NS3 (Hepatitis C virus); what follows is a combined list.
experimental_endpoint: pKi

molecule: CC(C)[C@H](NC(=O)[C@H](CCC(=O)O)NC(=O)[C@@H](N)CC(=O)O)C(=O)N[C@H](C(=O)N1CCC[C@H]1C(=O)N[C@@H](CCc1ccc(O)cc1)B1O[C@@H]2C[C@@H]3C[C@@H](C3(C)C)[C@]2(C)O1)C(C)C
study_target: NS3 (Hepatitis C virus)
pKi: 8.10

[1] C=CCCC(NC(=O)[C@@H]1[C@@H]2[C@H](CN1C(=O)[C@@H](NC(=O)OC(C)(C)C)C1CCCCC1)C2(C)C)C(=O)C(N)=O (stereo partly specified)
[2] CC[C@H](NC(=O)[C@@H]1C[C@@H](OCc2ccccc2)CN1C(=O)[C@@H](NC(=O)[C@@H](NC(=O)c1cnccn1)C(C)C)C(C)C)C(=O)C(=O)N[C@H](C)c1ccccc1
[3] CCCC(NC(=O)[C@@H]1[C@@H]2[C@H](CN1C(=O)[C@@H](NC(=O)OC(C)(C)C)C1CCCCC1)C2(C)C)C(=O)C(=O)NCC(=O)NCc1cccs1 (stereo partly specified)
[4] CCCC(NC(=O)[C@@H]1C[C@@H](OC(=O)N2CCc3ccccc3C2)CN1C(=O)[C@H](NC(=O)[C@H](NC(=O)c1cnccn1)C(C)C)C(C)C)C(=O)C(=O)NC(CO)C(=O)O (stereo partly specified)
[5] CCC[C@H](NC(=O)[C@@H]1C[C@@H]2CN1C(=O)[C@H](C1CCCCC1)NC(=O)Cc1cccc(c1)OCCCO2)C(=O)C(=O)NCC(=O)N[C@H](C(=O)N(C)C)c1ccccc1
Arrange the 5 molecules by rising pKi, starting with the smallest. # respond with the labels, arranged in the requested order
2, 4, 1, 3, 5
(2: 4.77, 4: 6.27, 1: 6.82, 3: 7.22, 5: 8.10)

###

Literature survey of Ki (system: UniProtKB A3EZJ3).
experimental_endpoint: Ki (nM)

The cases that follow already have their Ki on record.
compound: CC(C)[C@H](NC(=O)[C@H](CCC(=O)O)NC(=O)[C@@H](N)CC(=O)O)C(=O)N[C@H](C(=O)N1CCC[C@H]1C(=O)N[C@@H](CCc1ccccc1)B1O[C@@H]2C[C@@H]3C[C@@H](C3(C)C)[C@]2(C)O1)C(C)C
units_symbol: nM
Ki: 8

compound: CC(C)(C)[C@H](NC(=O)[C@@H](NC(=O)c1cnccn1)C1CCCCC1)C(=O)N1CC2CCCC2[C@H]1C(=O)NC(CC(F)F)C(=O)C(=O)NC1CC1 (stereo partly specified)
units_symbol: nM
Ki: 20

compound: CC[C@H](NC(=O)[C@@H]1C[C@@H](OCc2ccccc2)CN1C(=O)[C@@H](NC(=O)[C@@H](NC(=O)c1cnccn1)C(C)C)C(C)C)C(=O)C(=O)NCc1ccccc1
units_symbol: nM
Ki: 4000

compound: CCCC(NC(=O)[C@@H]1CC(OC(=O)N2CCc3ccccc3C2)CN1C(=O)[C@H](NC(=O)[C@H](NC(=O)c1cnccn1)C(C)C)C(C)C)C(=O)C(=O)Cc1ccccc1 (single isomer, unassigned)
units_symbol: nM
Ki: 430

compound: C=CCOC(=O)CNC(=O)C(=O)[C@H](CCC)NC(=O)[C@@H]1CN(Cc2ccccc2)C(=O)N1C(=O)[C@@H](NC(=O)[C@@H](NC(=O)[C@H](CCC(=O)O)NC(=O)[C@H](CCC(=O)O)NC(C)=O)C(C)C)C(C)C
units_symbol: nM
Ki: 1000

[I] CCCC(NC(=O)[C@@H]1[C@@H]2[C@H](CN1C(=O)[C@@H](NC(=O)OC(C)(C)C)C1CCCCC1)C2(C)C)C(=O)C(=O)NCC(=O)N[C@H](C)c1ccccc1 (stereo partly specified)
[II] C[C@@H](NC(=O)N[C@H](C(=O)N1C[C@H]2[C@@H]([C@H]1C(=O)NC(CC1CCC1)C(=O)C(N)=O)C2(C)C)C(C)(C)C)C(C)(C)C (stereo partly specified)
[III] CCC[C@H](NC(=O)[C@@H]1C2CCCC2CN1C(=O)[C@@H](NC(=O)[C@@H](NC(=O)c1cnccn1)[C@@H](C)CC)C(C)(C)C)C(=O)C(=O)NC1CC1 (stereo partly specified)
[IV] C=CCNC(=O)C(=O)[C@H](CCC)NC(=O)[C@@H]1CN(CC(=O)OCC)C(=O)N1C(=O)[C@@H](NC(=O)[C@@H](NC(=O)[C@H](CCC(=O)OC(C)(C)C)NC(=O)[C@H](CCC(=O)OC(C)(C)C)NC(C)=O)C(C)C)C(C)C
[V] CC(C)(C)OC(=O)N[C@H](C(=O)N1C[C@H]2[C@@H]([C@H]1C(=O)NC(CC1CCC1)C(=O)C(N)=O)C2(C)C)C1Cc2ccccc2C1 (stereo partly specified)
Which order do these items take when sorted by rising Ki? List them. Response field: labels, in requested order.
II, I, III, V, IV
(II: 35 nM, I: 55 nM, III: 80 nM, V: 270 nM, IV: 30000 nM)

###

A compilation of published Ki results with NS3 (Hepatitis C virus).
experimental_endpoint: Ki (nM)

These solved cases illustrate the format of a correct answer.
compound: CCCC(NC(=O)[C@@H]1C2CCCC2CN1C(=O)[C@@H](NC(=O)[C@@H](NC(=O)CCCCc1nnn[nH]1)C(C)C)C(C)C)C(=O)C(=O)Nc1ccccc1 (some centres not stated)
study_target: NS3 (Hepatitis C virus)
Ki, nM: 22
//
compound: CCCC(NC(=O)[C@@H]1C[C@@H]2CN1C(=O)[C@H](C1CCCCC1)NC(=O)N(C)Cc1cccc(c1)OCCCO2)C(=O)C(=O)NCC(=O)N[C@H](C(=O)N(C)C)c1ccccc1 (some centres not stated)
study_target: NS3 (Hepatitis C virus)
Ki, nM: 26
//
compound: CCC[C@H](NC(=O)[C@@H]1C2CCCC2CN1C(=O)[C@@H](NC(=O)[C@@H](NC(=O)c1cnccn1)C(C)(C)C)C(C)(C)C)C(=O)C(=O)NC1CC1 (some centres not stated)
study_target: NS3 (Hepatitis C virus)
Ki, nM: 160
//
compound: CCCC(NC(=O)[C@@H]1Cc2cccc(c2)OCCCCCCC(=O)N[C@@H](C2CCCCC2)C(=O)N1)C(=O)C(=O)NCC(=O)N[C@H](C(=O)N(C)C)c1ccccc1 (some centres not stated)
study_target: NS3 (Hepatitis C virus)
Ki, nM: 310
//
compound: CC[C@H](NC(=O)[C@@H]1C[C@@H](OCc2ccccc2)CN1C(=O)[C@@H](NC(=O)[C@@H](NC(=O)c1cnccn1)C(C)C)C(C)C)C(=O)C(=O)c1ccccc1
study_target: NS3 (Hepatitis C virus)
Ki, nM: 10000
//
compound: C=CCNC(=O)C(=O)[C@H](CCC)NC(=O)[C@@H]1CNC(=O)N1C(=O)[C@@H](NC(=O)[C@@H](NC(=O)[C@H](CCC(=O)OC(C)(C)C)NC(=O)[C@H](CCC(=O)OC(C)(C)C)NC(C)=O)C(C)C)C(C)C
study_target: NS3 (Hepatitis C virus)
Ki, nM: 69000
//
compound: CCCC(NC(=O)[C@@H]1Cc2cccc(c2)OCCCCCCC(=O)N[C@@H](C2CCCCC2)C(=O)N1)C(=O)C(=O)NCC(=O)N[C@H](C(=O)OC(C)(C)C)c1ccccc1 (some centres not stated)
study_target: NS3 (Hepatitis C virus)
Ki, nM: 5500
//
compound: CCCC(NC(=O)[C@@H]1Cc2cccc(c2)OCCCCCCC(=O)N[C@@H](C2CCCCC2)C(=O)N1)C(=O)C(=O)NCC(=O)N[C@H](C(=O)NC)c1ccccc1 (some centres not stated)
study_target: NS3 (Hepatitis C virus)
Ki, nM: 170

[A] CCCC(NC(=O)[C@@H]1C[C@@H]2CN1C(=O)[C@H](C1CCCCC1)NC(=O)Cc1cccc(c1)OCCC(C)(C)O2)C(=O)C(=O)NCC(=O)O (some centres not stated)
[B] CCCC(NC(=O)[C@@H]1Cc2cccc(c2)OCCCCCCC(=O)N[C@@H](C2CCCCC2)C(=O)N1)C(=O)C(=O)NCC(=O)N[C@H](C(=O)O)c1ccccc1 (some centres not stated)
Returns: the label, A or B , whose recorded Ki is the lower number. Your answer should be the label attached to the chosen record.
B
(B: 160 nM, A: 720 nM)
